system: T1, Phosphono-CheY (Escherichia coli, UniProt P0AE67 1-129, D57C, phosphonomethyl group on Cys57 (Pcy57))
T1 sequence (looked up): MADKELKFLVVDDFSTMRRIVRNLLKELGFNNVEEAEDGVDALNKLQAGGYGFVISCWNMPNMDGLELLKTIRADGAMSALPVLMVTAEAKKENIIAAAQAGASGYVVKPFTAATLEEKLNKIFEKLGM
assayDetails: other fluorescence titration
resultType: Kd (µM)
Give the value in µM but do not write µM after it.

Lookup: Field request: Kd | item: MGDSILSQAEIDALLN [FliM peptide]
Found: 38

All figures here come from paper PMC2850201.
